Assay: Drug metabolism in human in presence of quinidine
Format: ADME, organism-based
Conditions: in vivo, with quinidine, read-out: Drug metabolism
readout: metabolised (%)
Enter your answer as a number in %; do not include the unit.

INPUT: Which metabolised value belongs to O=C(NCc1ccc(Cl)s1)c1ccc2[nH]c(-c3ccc(C(=O)c4ccccc4C(F)(F)F)cc3)nc2c1 ?
OUTPUT: 40

INPUT: Which metabolised value belongs to O=C(NCCC1CC1)c1ccc2nc(-c3ccc(Oc4ccccc4Cl)cc3)[nH]c2c1 ?
OUTPUT: 58

INPUT: Which metabolised value belongs to O=C(NCc1ccc(Cl)s1)c1ccc2nc(-c3ccc(Oc4ccccc4Cl)cc3)[nH]c2c1 ?
OUTPUT: 62

INPUT: Which metabolised value belongs to OC(c1ccc2[nH]c(-c3ccc(OCc4ccccc4)cc3)nc2c1)c1ccccc1C(F)(F)F (racemic) ?
OUTPUT: 60

INPUT: Which metabolised value belongs to O=C(NCc1nccs1)c1ccc2nc(-c3ccc(Oc4ccccc4Cl)cc3)[nH]c2c1 ?
OUTPUT: 40
